Tested on: SF-539 CNS
Experiment: NCI tumour cell line growth inhibition, 48 h
measuredQuantity: GI50

Parameters: items (list). Returns: GI50 for each item.
1. O=C(Nc1nc2ccc(C(F)(F)F)cc2s1)c1cc(Cl)ccc1O
2. COc1cc(N(CCC#N)CCC#N)ccc1/C(N=Nc1ccc([N+](=O)[O-])cc1)=N/NC(=O)c1cc(Br)ccc1O
3. Cn1cc(CO)c2c1C(=O)C=C(N1CC1)C2=O
4. N#CC(=C1C=CC(=NO)C=C1)c1ccccc1

A)
["1490 nM", "33.2 µg/mL", "< 10 nM", "920 nM"]

###

Provide the reported TGI of each item.
System: NCI-H522 lung
Assay: NCI tumour cell line growth inhibition, 48 h

Respectfully, I request TGI for each entry included below.
1. CN=c1nc2sc3c(c2c(NC(=S)NC)s1)CCCC3
2. Cn1c2ccccc2c2c3c(c4c5cc(Br)ccc5n(C)c4c21)C(=O)N(O)C3=O
3. CN(C)c1nc2ccccc2[nH]1
4. O=C(Cc1ccc(/C=C/C(=O)c2ncc[nH]2)cc1)Nc1cc(F)c(F)c(F)c1

A)
1: > 100 µM; 2: > 100 µM; 3: > 100 µM; 4: 8.01 µM

// each compound listed below needs its TGI
1. C=C(c1nc2ccc(Cl)cc2[nH]c1=O)C(O)c1ccc(C(O)C(=O)c2nc3ccc(Cl)cc3[nH]c2=O)cc1 (stereo unspecified)
2. CO/N=C/c1cc(OC)c(OC)c(OC)c1

A)
> 100 µM
> 100 µM
